- study.target: human plasma butyrylcholinesterase (hBuChE) (Homo sapiens (Human))
- Sequence (P06276 29-602): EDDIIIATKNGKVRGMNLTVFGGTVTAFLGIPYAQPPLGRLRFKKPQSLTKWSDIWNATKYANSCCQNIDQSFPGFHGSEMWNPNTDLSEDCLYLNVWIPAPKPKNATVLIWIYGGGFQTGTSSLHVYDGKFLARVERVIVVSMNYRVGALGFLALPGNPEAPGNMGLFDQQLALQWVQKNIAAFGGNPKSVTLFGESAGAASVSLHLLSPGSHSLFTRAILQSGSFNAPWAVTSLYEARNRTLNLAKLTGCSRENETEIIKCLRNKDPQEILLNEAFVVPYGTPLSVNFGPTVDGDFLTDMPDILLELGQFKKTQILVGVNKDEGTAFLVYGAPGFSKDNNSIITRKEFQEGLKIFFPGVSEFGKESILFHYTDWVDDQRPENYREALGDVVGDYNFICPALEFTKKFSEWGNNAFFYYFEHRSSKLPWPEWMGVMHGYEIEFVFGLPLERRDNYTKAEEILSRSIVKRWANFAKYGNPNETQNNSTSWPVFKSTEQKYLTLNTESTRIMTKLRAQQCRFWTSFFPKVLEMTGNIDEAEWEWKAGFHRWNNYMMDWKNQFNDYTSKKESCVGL
- test.name: Ellman's test, inhibition of human plasma butyrylcholinesterase
- Procedure: The spectrophotometric Ellman's test [Ellman et al.] modified for assays in 96-well plates was used to test the activity. […] After another 5 minutes, the changes in absorbance of the solutions were measured at 412 nm using a multifunctional microplate reader (EnSpire Multimode; PerkinElmer; Waltham, MA, USA). […]
# reported pIC50; entries follow
# pIC50 = -log10(concentration in molar units)

compound	measured.result
O[C@@H](CNCC1CC1)[C@H](Cc1ccccc1)NC1c2ccccc2-c2ccccc21 [Compound 15]	5.99

Now look at this entry.
Query block: # get_value(readout='pIC50', item= O[C@H](CNCc1ccccc1)[C@H](Cc1ccccc1)NC1c2ccccc2-c2ccccc21 [Compound 1] )
Result block: 6.71

---

- study.target: UniProt P31650
- Sequence (P31650 whole entry): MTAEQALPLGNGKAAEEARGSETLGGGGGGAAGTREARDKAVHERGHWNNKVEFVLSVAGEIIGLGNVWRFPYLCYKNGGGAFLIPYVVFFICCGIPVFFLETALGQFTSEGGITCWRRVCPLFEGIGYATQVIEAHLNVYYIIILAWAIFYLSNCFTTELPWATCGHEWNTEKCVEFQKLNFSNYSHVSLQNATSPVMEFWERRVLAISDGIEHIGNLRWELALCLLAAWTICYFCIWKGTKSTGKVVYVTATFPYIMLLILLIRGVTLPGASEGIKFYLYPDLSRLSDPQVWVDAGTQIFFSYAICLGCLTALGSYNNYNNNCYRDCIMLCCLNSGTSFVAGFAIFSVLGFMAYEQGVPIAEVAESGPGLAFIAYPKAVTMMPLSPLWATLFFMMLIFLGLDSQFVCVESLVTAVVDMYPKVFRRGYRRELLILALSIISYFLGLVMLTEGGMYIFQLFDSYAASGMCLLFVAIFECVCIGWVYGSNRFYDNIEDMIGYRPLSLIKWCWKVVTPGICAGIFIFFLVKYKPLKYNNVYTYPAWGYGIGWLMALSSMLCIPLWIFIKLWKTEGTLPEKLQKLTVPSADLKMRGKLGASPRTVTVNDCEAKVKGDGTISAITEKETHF
- test.name: [3H]GABA uptake inhibition, mGAT4 in HEK293 cells
- Format: cell-based
- measurement.setup: GABA reuptake; read-out: pIC50 (+/−SEM) mGAT4 (converted)
measured.attribute: IC50

Reference set, count: 4
molecule	study.target	IC50
COc1ccccc1CNC[C@H](O)[C@H](Cc1ccccc1)NC(=O)CC1c2ccccc2-c2ccccc21 [Compound 20]	UniProt P31650	4.07 µM
O=C(CC1c2ccccc2-c2ccccc21)N[C@@H](Cc1ccccc1)[C@@H](O)CNCc1ccccc1 [Compound 17]	UniProt P31650	7.24 µM
CC(C)(C)CNC[C@@H](O)[C@H](Cc1ccccc1)NC(=O)CC1c2ccccc2-c2ccccc21 [Compound 27]	UniProt P31650	13.8 µM
CC(C)(C)c1ccc(CNC[C@H](O)[C@H](Cc2ccccc2)NC(=O)CC2c3ccccc3-c3ccccc32)cc1 [Compound 19]	UniProt P31650	15.5 µM

Query block: # get_value(readout='IC50', item= O=C(CC1c2ccccc2-c2ccccc21)N[C@@H](Cc1ccccc1)[C@H](O)CNCC1CC1 [Compound 28] )
Result block: 12.6 µM

---

- study.target: Recombinant human Aβ1-42 peptide (Homo sapiens (Human))
- test.name: Thioflavin T test, antiaggregation activity against beta-amyloid
- Assay type: biochemical
- measurement.setup: 10 μM test compound, 1.5 μM Aβ1-42; read-out: inh. Aβ aggr. % inh
# reported inhibition at 10 µM; entries follow
Your answer should be a plain number; it is taken to be in %.

Reference set, count: 5
molecule	inhibition at 10 µM, %
CC(C)(C)CNC[C@@H](O)[C@H](Cc1ccccc1)NC(=O)C1c2ccccc2-c2ccccc21 [Compound 26]	39.5
O[C@H](CNCC(F)(F)F)[C@H](Cc1ccccc1)NC1c2ccccc2-c2ccccc21 [Compound 14]	82.5
CC(C)(C)CNC[C@@H](O)[C@H](Cc1ccccc1)NC(=O)CC1c2ccccc2-c2ccccc21 [Compound 27]	53.5
O[C@@H](CNCC1CCCCC1)[C@H](Cc1ccccc1)NC1c2ccccc2-c2ccccc21 [Compound 11]	78.6
O=C(CC1c2ccccc2-c2ccccc21)N[C@@H](Cc1ccccc1)[C@H](O)CNCC1CC1 [Compound 28]	73.4

Query block: # get_value(readout='inhibition at 10 µM', item= C[C@H](NC[C@@H](O)[C@H](Cc1ccccc1)NC1c2ccccc2-c2ccccc21)c1ccccc1 [Compound 9] )
Result block: 63

---

- study.target: UniProt:P31650
- test.name: [3H]GABA uptake inhibition, mGAT4 in HEK293 cells
- Format: cell-based
- measurement.setup: inhibitor at 100 μM; remaining reuptake
# reported percentage of [3H]GABA reuptake retained, mGAT4; entries follow
Your answer should be a plain number; it is taken to be in %.

Reference set, count: 3
given.smiles	measured.result
O[C@@H](CNCC1CCCCC1)[C@H](Cc1ccccc1)NC1c2ccccc2-c2ccccc21	59
C[C@H](NC[C@@H](O)[C@H](Cc1ccccc1)NC(=O)C1c2ccccc2-c2ccccc21)c1ccccc1	69
CC(C)(C)c1cccc(CNC[C@@H](O)[C@H](Cc2ccccc2)NC2c3ccccc3-c3ccccc32)c1	56

Now look at this entry.
Query block: # get_value(readout='percentage of [3H]GABA reuptake retained, mGAT4', item= "C[C@H](NC[C@@H](O)[C@H](Cc1ccccc1)NC(=O)CC1c2ccccc2-c2ccccc21)c1ccccc1" )
Result block: 61

---

- study.target: human recombinant beta-secretase (hBACE1) (Homo sapiens (Human))
- Sequence (P56817 46-501): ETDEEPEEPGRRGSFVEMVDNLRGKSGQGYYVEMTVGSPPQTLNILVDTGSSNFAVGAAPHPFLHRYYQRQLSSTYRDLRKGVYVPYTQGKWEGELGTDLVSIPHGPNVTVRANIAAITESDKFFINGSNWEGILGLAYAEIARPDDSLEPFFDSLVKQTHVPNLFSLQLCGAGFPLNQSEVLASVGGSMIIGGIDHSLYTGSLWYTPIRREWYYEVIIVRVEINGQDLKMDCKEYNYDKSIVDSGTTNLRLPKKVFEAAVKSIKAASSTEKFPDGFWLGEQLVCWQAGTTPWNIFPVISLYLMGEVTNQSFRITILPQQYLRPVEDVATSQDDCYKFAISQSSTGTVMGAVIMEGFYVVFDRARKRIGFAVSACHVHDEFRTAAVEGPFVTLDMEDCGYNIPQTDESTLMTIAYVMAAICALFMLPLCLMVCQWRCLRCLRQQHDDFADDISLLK
- test.name: FRET assay, inhibition of human recombinant beta-secretase
- measurement.setup: read-out: hBACE-1 IC50
# reported pIC50; entries follow
# pIC50 = -log10(concentration in molar units)

given.smiles	study.target	pIC50
O[C@@H](CNCC1CCCCC1)[C@H](Cc1ccccc1)NC1c2ccccc2-c2ccccc21	human recombinant beta-secretase (hBACE1) (Homo sapiens (Human))	5.07
O[C@H](CNCc1cccc(C(F)(F)F)c1)[C@H](Cc1ccccc1)NC1c2ccccc2-c2ccccc21	human recombinant beta-secretase (hBACE1) (Homo sapiens (Human))	5.50

Query block: Field: pIC50 (human recombinant beta-secretase (hBACE1) (Homo sapiens (Human))). Entry: "CC(C)(NC[C@@H](O)[C@H](Cc1ccccc1)NC1c2ccccc2-c2ccccc21)c1ccccc1"
Result block: 4.76

Query block: Field: pIC50 (human recombinant beta-secretase (hBACE1) (Homo sapiens (Human))). Entry: "O[C@@H](CNCc1ccccc1)[C@H](Cc1ccccc1)NC1c2ccccc2-c2ccccc21"
Result block: 5.32

---

- study.target: Recombinant human Aβ1-42 peptide (Homo sapiens (Human), UniProt P05067)
- Sequence (P05067 672-713): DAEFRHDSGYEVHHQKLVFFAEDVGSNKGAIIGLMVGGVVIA
- test.name: Thioflavin T test, antiaggregation activity against beta-amyloid
- Format: biochemical
- measurement.setup: 10 μM test compound, 1.5 μM Aβ1-42; read-out: inh. Aβ aggr. % inh
- Method: The thioflavin T test [Levine III] was used for the determinations. Recombinant human Aβ1-42 peptide (HFIP pretreated, Merck Millipore, Darmstadt, Germany) was dissolved in DMSO to form a 75 μM stock solution. […] Fluorescence was measured every 300 s (excitation wavelength was 440 nm, emission wavelength was 490 nm) with continuous mixing between measurements. A multifunction microplate reader (Synergy H4; BioTek Instruments, Inc., Winooski, VT, USA) was used to measure the fluorescence. […]
measured.attribute: inhibition at 10 µM
# number then unit; no other words

given.smiles	study.target	measured.attribute	measured.result
CC(C)(C)CNC[C@@H](O)[C@H](Cc1ccccc1)NC1c2ccccc2-c2ccccc21	Recombinant human Aβ1-42 peptide (Homo sapiens (Human), UniProt P05067)	inhibition at 10 µM	80.2%
O=C(CC1c2ccccc2-c2ccccc21)N[C@@H](Cc1ccccc1)[C@@H](O)CNCc1ccccc1	Recombinant human Aβ1-42 peptide (Homo sapiens (Human), UniProt P05067)	inhibition at 10 µM	42.5%
CC(C)(NC[C@@H](O)[C@H](Cc1ccccc1)NC(=O)C1c2ccccc2-c2ccccc21)c1ccccc1	Recombinant human Aβ1-42 peptide (Homo sapiens (Human), UniProt P05067)	inhibition at 10 µM	61%

Now look at this entry.
Query block: Field: inhibition at 10 µM (Recombinant human Aβ1-42 peptide (Homo sapiens (Human), UniProt P05067)). Entry: "O[C@H](CNCc1ccccc1)[C@H](Cc1ccccc1)NC1c2ccccc2-c2ccccc21"
Result block: 82.5%

---

- study.target: Recombinant human Aβ1-42 peptide (Homo sapiens (Human))
- test.name: Thioflavin T test, antiaggregation activity against beta-amyloid
- Format: biochemical
- measurement.setup: 10 μM test compound, 1.5 μM Aβ1-42; read-out: inh. Aβ aggr. % inh
measured.attribute: inhibition at 10 µM

compound	inhibition at 10 µM
COc1ccccc1CNC[C@H](O)[C@H](Cc1ccccc1)NC(=O)CC1c2ccccc2-c2ccccc21 [Compound 20]	< 10%
CC(C)(C)c1ccc(CNC[C@H](O)[C@H](Cc2ccccc2)NC(=O)C2c3ccccc3-c3ccccc32)cc1 [Compound 18]	63.5%
CC(C)(C)NC[C@H](O)[C@H](Cc1ccccc1)NC1c2ccccc2-c2ccccc21 [Compound 12]	67.2%
O[C@@H](CNCc1ccccc1)[C@H](Cc1ccccc1)NC1c2ccccc2-c2ccccc21 [Compound 2]	86.3%
CC(C)(NC[C@@H](O)[C@H](Cc1ccccc1)NC(=O)CC1c2ccccc2-c2ccccc21)c1ccccc1 [Compound 25]	63%
CC(C)(C)c1cccc(CNC[C@@H](O)[C@H](Cc2ccccc2)NC2c3ccccc3-c3ccccc32)c1 [Compound 3]	90.9%
CC(C)(NC[C@@H](O)[C@H](Cc1ccccc1)NC1c2ccccc2-c2ccccc21)c1ccccc1 [Compound 10]	90.8%
CC(C)c1cccc(CNC[C@@H](O)[C@H](Cc2ccccc2)NC2c3ccccc3-c3ccccc32)c1 [Compound 4]	83.7%
CC(C)(C)c1ccc(CNC[C@H](O)[C@H](Cc2ccccc2)NC(=O)CC2c3ccccc3-c3ccccc32)cc1 [Compound 19]	86.7%
C[C@H](NC[C@@H](O)[C@H](Cc1ccccc1)NC(=O)CC1c2ccccc2-c2ccccc21)c1ccccc1 [Compound 23]	59.4%

Query block: # get_value(readout='inhibition at 10 µM', item= O[C@H](CNCC1CC1)[C@H](Cc1ccccc1)NC1c2ccccc2-c2ccccc21 [JT-3] )
Result block: 79%

Query block: # get_value(readout='inhibition at 10 µM', item= O=C(CC1c2ccccc2-c2ccccc21)N[C@@H](Cc1ccccc1)[C@H](O)CNCc1cccc(C(F)(F)F)c1 [Compound 21] )
Result block: < 10%

Query block: # get_value(readout='inhibition at 10 µM', item= O[C@H](CNCc1cccc(C(F)(F)F)c1)[C@H](Cc1ccccc1)NC1c2ccccc2-c2ccccc21 [Compound 8] )
Result block: 72.4%

This collection of values is drawn from patent US12492163B2.
